Source listed as patent US20250145642A1.

assay.system: full-length human PIKFYVE (N-terminal GST-fusion) (Homo sapiens (Human), UniProt Q9Y2I7, L932S/Q1183K/Q995L/S1033A/S696N/T998S)
Sequence (Q9Y2I7 whole entry S696N/L932S/Q995L/T998S/S1033A/Q1183K, the tested form may be a part): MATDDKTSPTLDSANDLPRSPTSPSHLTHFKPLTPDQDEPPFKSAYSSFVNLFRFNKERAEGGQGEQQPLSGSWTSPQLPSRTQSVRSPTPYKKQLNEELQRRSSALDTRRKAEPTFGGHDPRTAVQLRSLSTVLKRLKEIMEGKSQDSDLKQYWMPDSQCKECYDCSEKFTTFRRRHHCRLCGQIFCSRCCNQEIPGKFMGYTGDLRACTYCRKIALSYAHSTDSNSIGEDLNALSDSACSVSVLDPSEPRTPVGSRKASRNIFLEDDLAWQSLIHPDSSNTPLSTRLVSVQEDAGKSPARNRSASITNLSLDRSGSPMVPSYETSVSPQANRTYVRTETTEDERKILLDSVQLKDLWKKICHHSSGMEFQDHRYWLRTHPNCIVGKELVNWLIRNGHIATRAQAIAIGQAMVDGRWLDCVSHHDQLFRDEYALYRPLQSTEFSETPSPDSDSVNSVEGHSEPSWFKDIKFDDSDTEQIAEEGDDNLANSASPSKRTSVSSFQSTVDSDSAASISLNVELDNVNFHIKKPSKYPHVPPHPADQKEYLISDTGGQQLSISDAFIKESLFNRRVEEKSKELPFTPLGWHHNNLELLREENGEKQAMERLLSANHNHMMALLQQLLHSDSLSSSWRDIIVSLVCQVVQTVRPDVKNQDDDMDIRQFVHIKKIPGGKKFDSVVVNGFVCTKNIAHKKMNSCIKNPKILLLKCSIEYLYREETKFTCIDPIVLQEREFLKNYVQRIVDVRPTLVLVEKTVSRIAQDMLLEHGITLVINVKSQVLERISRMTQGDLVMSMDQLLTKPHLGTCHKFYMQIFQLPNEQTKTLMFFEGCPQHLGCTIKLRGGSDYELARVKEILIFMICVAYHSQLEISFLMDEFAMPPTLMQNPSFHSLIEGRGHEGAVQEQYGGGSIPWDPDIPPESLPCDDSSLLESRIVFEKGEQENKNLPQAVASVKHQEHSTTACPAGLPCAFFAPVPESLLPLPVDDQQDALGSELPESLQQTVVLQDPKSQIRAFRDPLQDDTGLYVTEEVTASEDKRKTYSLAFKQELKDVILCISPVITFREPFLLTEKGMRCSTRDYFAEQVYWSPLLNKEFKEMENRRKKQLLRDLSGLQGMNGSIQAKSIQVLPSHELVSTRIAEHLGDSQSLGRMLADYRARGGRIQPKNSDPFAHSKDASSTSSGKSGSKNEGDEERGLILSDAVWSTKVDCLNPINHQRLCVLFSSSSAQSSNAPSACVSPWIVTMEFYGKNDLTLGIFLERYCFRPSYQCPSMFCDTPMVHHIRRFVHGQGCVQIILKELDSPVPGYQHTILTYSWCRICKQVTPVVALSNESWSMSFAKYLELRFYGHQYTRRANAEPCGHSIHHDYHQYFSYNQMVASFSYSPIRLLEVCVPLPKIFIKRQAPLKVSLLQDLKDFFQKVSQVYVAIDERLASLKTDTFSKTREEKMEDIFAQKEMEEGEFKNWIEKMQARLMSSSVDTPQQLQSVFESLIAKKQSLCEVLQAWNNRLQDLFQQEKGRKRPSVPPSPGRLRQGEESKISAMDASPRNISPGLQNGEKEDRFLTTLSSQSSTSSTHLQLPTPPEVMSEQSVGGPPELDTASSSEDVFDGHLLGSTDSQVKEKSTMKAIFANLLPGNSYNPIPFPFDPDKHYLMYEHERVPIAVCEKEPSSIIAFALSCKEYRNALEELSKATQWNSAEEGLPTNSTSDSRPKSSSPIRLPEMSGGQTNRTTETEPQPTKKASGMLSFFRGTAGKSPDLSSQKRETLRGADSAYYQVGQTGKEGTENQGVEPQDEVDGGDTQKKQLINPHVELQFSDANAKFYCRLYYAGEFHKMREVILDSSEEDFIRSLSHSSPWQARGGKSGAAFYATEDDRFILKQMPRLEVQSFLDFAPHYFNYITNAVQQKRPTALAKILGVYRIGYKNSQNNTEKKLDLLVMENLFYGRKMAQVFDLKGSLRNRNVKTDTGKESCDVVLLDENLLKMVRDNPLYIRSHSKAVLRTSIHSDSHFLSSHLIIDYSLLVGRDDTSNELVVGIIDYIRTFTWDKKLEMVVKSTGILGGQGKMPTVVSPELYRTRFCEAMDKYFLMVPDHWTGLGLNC
assay: PIKfyve biochemical assay (ADP-Glo Kinase assay, Carna Biosciences)
cond: ADP-Glo, full-length human GST-PIKFYVE, 10 μM to 3 nM; read-out: hPIKfyve IC50
pIC50: −log10 of the molar value.
Would you mind telling me the reported pIC50 of each entry?

Lookup: GET /values?readout=pIC50&item= Cc1cccc(CN2CCc3c(Cl)nc(N4CCOCC4)nc32)c1
Found: < 5.00

Lookup: Now consider CN1CCC(OCc2nc(N3CCOCC3)nc3c2CCN3c2cccnc2)C1 (centres unmarked) .
Found: 5.00 to 6.00

Lookup: Okay, and c1ccc(-n2cc(N3CCc4c(Oc5cccnc5)nc(N5CCOCC5)nc43)cn2)cc1 ?
Found: 7.00 to 8.00

Lookup: Next molecule: CC(C)(C)OC(=O)N1CC(c2nc(N3CCOCC3)nc3c2CCN3c2ccccc2)C1
Found: > 8.00

Lookup: Next up: CN1CCC(N2CCc3c(OCc4cccnc4)nc(N4CCOCC4)nc32)CC1
Found: < 5.00

====

assay.system: full-length human PIKFYVE (N-terminal GST-fusion) (Homo sapiens (Human), UniProt Q9Y2I7, L932S/Q1183K/Q995L/S1033A/S696N/T998S)
assay: PIKfyve biochemical assay (ADP-Glo Kinase assay, Carna Biosciences)
cond: ADP-Glo, full-length human GST-PIKFYVE, 10 μM to 3 nM; read-out: hPIKfyve IC50
From the text: PIKfyve Biochemical Assay. The biochemical PIKfyve inhibition assays were run by Carna Biosciences according to proprietary methodology based on the Promega ADP-Glo™ Kinase assay. A full-length human PIKFYVE [1-2098(end) amino acids and S696N, L932S, Q995L, T998S, S1033A and Q1183K of the protein having the sequence set forth in NCBI Reference Sequence No. NP_055855.2] was expressed as N-terminal GST-fusion protein (265 kDa) using baculovirus expression system. […]
pIC50: −log10 of the molar value.
attribute.measured: pIC50

Lookup: Endpoint output: pIC50 of c1ccc(N2CCc3c(OCc4cncnc4)nc(N4CCOCC4)nc32)cc1 [Compound 14] . Value?
Found: 7.00 to 8.00

Lookup: Continue with c1cncc(COc2nc(N3CCOCC3)nc3c2CCN3c2cccnc2)c1 [Compound 32]
Found: 6.00 to 7.00

Lookup: Param item: c1cncc(N2CCc3c(OCC4CCCO4)nc(N4CCOCC4)nc32)c1 (stereo not shown) [Compound 23]
Found: 6.00 to 7.00

Lookup: Next compound up: c1ccc(N2CCc3c(-c4cncnc4)nc(N4CCOCC4)nc32)cc1 [Compound 100]
Found: 7.00 to 8.00

====

Assignment: determine reported IC50 for the given compounds.
assay.system: full-length human PIKFYVE (N-terminal GST-fusion) (Homo sapiens (Human), UniProt Q9Y2I7, L932S/Q1183K/Q995L/S1033A/S696N/T998S)
assay: PIKfyve biochemical assay (ADP-Glo Kinase assay, Carna Biosciences)
cond: ADP-Glo, full-length human GST-PIKFYVE, 10 μM to 3 nM; read-out: hPIKfyve IC50

Lookup: Dear colleague, I am looking for the recorded IC50 of the following compound: CN1CCCC(CCOc2nc(N3CCOCC3)nc3c2CCN3c2cccnc2)C1 (stereo not drawn) [Compound 11]
Found: 10 to 100 nM

Lookup: Follow-up item: c1ccc(N2CCc3c(C4CCOCC4)nc(N4CCOCC4)nc32)cc1 [Compound 86]
Found: 100 to 1000 nM

Lookup: Then what about the compound Oc1ccc[n+](Cc2nc(N3CCOCC3)nc3c2CCN3c2ccccc2)c1 [Compound 60] ?
Found: 100 to 1000 nM

Lookup: Another compound to look at: c1ccc(Oc2nc(N3CCOCC3)nc3c2CCN3c2cccnc2)nc1 [Compound 58]
Found: 100 to 1000 nM

Lookup: Proceed to c1cncc(N2CCc3c(C4CCOC4)nc(N4CCOCC4)nc32)c1 (stereo not drawn) [Compound 89]
Found: 100 to 1000 nM

Lookup: // next record c1ccc(N2CCc3c(COC4CCOCC4)nc(N4CCOCC4)nc32)cc1 [Compound 61]
Found: 100 to 1000 nM

Lookup: Now consider CCN1CCCC(COc2nc(N3CCOCC3)nc3c2CCN3c2cccnc2)C1 (stereo not drawn) [Compound 10] .
Found: 100 to 1000 nM

Lookup: Repeat with c1ccc(-c2cncc(N3CCc4c(Oc5cccnc5)nc(N5CCOCC5)nc43)c2)cc1 [Compound 67]
Found: 10 to 100 nM

Lookup: Now give it for COc1cccc(C#Cc2nc(N3CCOCC3)nc3c2CCN3c2cccnc2)c1 [Compound 85] too.
Found: 100 to 1000 nM

====

I'd be grateful if you could share measured pIC50 for these entries.
assay.system: full-length human PIKFYVE (N-terminal GST-fusion) (Homo sapiens (Human), UniProt Q9Y2I7, L932S/Q1183K/Q995L/S1033A/S696N/T998S)
assay: PIKfyve biochemical assay (ADP-Glo Kinase assay, Carna Biosciences)
cond: ADP-Glo, full-length human GST-PIKFYVE, 10 μM to 3 nM; read-out: hPIKfyve IC50
pIC50: −log10 of the molar value.

Lookup: Request the reported pIC50 associated with CN1CCCC(COc2nc(N3CCOCC3)nc3c2CCN3CC(C)(C)O)C1 (centres unmarked)
Found: < 5.00

Lookup: For Fc1cccc(N2CCc3c(C4CCOC4)nc(N4CCOCC4)nc32)c1 (centres unmarked) then?
Found: 6.00 to 7.00

Lookup: Please do the same for c1ccc(N2CCc3c(OC4CCOC4)nc(N4CCOCC4)nc32)cc1 (centres unmarked) as well.
Found: 6.00 to 7.00

Lookup: And c1ccc(N2CCc3c(-c4cccnc4)nc(N4CCOCC4)nc32)cc1 ?
Found: 7.00 to 8.00

Lookup: Same question, CN1CCC(c2nc(N3CCOCC3)nc3c2ncn3-c2ccccc2)C1 (centres unmarked) this time
Found: 5.00 to 6.00

====

assay.system: full-length human PIKFYVE (N-terminal GST-fusion) (Homo sapiens (Human), UniProt Q9Y2I7, L932S/Q1183K/Q995L/S1033A/S696N/T998S)
assay: PIKfyve biochemical assay (ADP-Glo Kinase assay, Carna Biosciences)
cond: ADP-Glo, full-length human GST-PIKFYVE, 10 μM to 3 nM; read-out: hPIKfyve IC50
pIC50: −log10 of the molar value.
attribute.measured: pIC50

Lookup: So what does the record say about pIC50 for Fc1cccc(N2CCc3c(-c4ccncc4)nc(N4CCOCC4)nc32)c1 ?
Found: > 8.00

Lookup: Queued: c1ccc(N2CCc3c(Nc4cccnc4)nc(N4CCOCC4)nc32)cc1
Found: 7.00 to 8.00

Lookup: What do you get for CC(C)(C)OC(=O)N1CC(COc2nc(N3CCOCC3)nc3c2CCN3c2cccnc2)C1 ?
Found: 6.00 to 7.00

Lookup: Next up: CN1CCCC(COc2nc(N3CCOCC3)nc3c2CCN3c2ccnnc2)C1 (stereo not drawn)
Found: 6.00 to 7.00

Lookup: And then COc1cccc(C2CC2c2nc(N3CCOCC3)nc3c2CCN3c2cccnc2)c1 (stereo not drawn) , what is it?
Found: 6.00 to 7.00

Lookup: Then this molecule: c1ccc(-n2ncc3c(OCc4cccnc4)nc(N4CCOCC4)nc32)cc1
Found: 7.00 to 8.00

Lookup: // next record CN1CCC(COc2nc(N3CCOCC3)nc3c2CCN3c2cccnc2)C1 (stereo not drawn)
Found: 6.00 to 7.00

Lookup: Please answer likewise for CN1CC(COc2nc(N3CCOCC3)nc3c2CCN3c2cccnc2)C1
Found: 5.00 to 6.00

Lookup: Okay, and CC(=O)N1CCC(c2nc(N3CCOCC3)nc3c2CCN3c2ccccc2)C1 (stereo not drawn) ?
Found: 7.00 to 8.00

====

assay.system: full-length human PIKFYVE (N-terminal GST-fusion) (Homo sapiens (Human), UniProt Q9Y2I7, L932S/Q1183K/Q995L/S1033A/S696N/T998S)
assay: PIKfyve biochemical assay (ADP-Glo Kinase assay, Carna Biosciences)
cond: ADP-Glo, full-length human GST-PIKFYVE, 10 μM to 3 nM; read-out: hPIKfyve IC50
Please go through the items and note down their IC50.

Lookup: What value of IC50 has been recorded for this entry: CC(=O)N1CCC(c2nc(N3CCOCC3)nc3c2CCN3c2ccccc2)CC1
Found: 10 to 100 nM

Lookup: And the next one, Cn1nccc1-c1c[nH]c2c(-c3ccncc3)nc(N3CCOCC3)nc12 ?
Found: 10 to 100 nM

Lookup: Try this compound too: CN1CCCC(c2nc(N3CCOCC3)nc3c2ncn3-c2cccnc2)C1 (stereo not drawn)
Found: > 10000 nM

Lookup: Same thing, different compound: COc1nc(N2CCOCC2)nc2c1CCN2c1ccccc1
Found: 10 to 100 nM

Lookup: Try the compound c1ccc(N2CCc3c(C4CNC4)nc(N4CCOCC4)nc32)cc1
Found: 100 to 1000 nM

Lookup: What would you report for COc1cccc(N2CCc3c(OCC4CCCN(C)C4)nc(N4CCOCC4)nc32)c1 (stereo not drawn) ?
Found: 10 to 100 nM

Lookup: What do we get for c1ccc(-c2cncc(Oc3nc(N4CCOCC4)nc4c3CCN4c3cccnc3)c2)cc1 ?
Found: 10 to 100 nM

Lookup: Thanks! And O=c1ccccn1-c1nc(N2CCOCC2)nc2c1CCN2c1ccccc1 ?
Found: 100 to 1000 nM

Lookup: Try this compound too: Fc1cccc(N2CCc3c(Oc4cccnc4)nc(N4CCOCC4)nc32)c1
Found: 10 to 100 nM
